# tgt: Factor X (FX), P00742
# Sequence (P00742 whole entry, looked up): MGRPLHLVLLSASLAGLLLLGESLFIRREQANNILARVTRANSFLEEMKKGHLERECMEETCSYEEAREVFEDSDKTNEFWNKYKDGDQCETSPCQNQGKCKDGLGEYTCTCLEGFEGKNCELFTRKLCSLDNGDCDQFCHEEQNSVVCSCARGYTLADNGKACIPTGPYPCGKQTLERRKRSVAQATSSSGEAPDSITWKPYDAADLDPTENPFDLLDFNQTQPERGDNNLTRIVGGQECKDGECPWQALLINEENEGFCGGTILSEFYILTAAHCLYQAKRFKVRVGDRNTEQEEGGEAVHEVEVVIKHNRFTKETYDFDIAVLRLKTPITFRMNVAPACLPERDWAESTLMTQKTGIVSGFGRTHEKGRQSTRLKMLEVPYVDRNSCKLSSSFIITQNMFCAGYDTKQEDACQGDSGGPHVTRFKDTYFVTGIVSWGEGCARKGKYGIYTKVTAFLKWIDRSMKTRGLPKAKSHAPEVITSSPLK
recorded metric: kcat of FX activation by FIXa in the Xase complex (FVIIIa, PC/PS vesicles, Ca2+) (s⁻¹)
Entry rule: numbers only, all in s⁻¹.

Can you look up the measured kcat of FX activation by FIXa in the Xase complex (FVIIIa, PC/PS vesicles, Ca2+) of FIXa-Y155F/R318Y/T343R/R403E/E410N (protein) chain 1: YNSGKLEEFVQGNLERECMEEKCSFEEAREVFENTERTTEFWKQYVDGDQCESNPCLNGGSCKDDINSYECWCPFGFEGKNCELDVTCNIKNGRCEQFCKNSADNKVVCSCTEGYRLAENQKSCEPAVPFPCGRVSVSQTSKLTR chain 2: VVGGEDAKPGQFPWQVVLNGKVDAFCGGSIVNEKWIVTAAHCVETGVKITVVAGEHNIEETEHTEQKRNVIRIIPHHNYNAAINKYNHDIALLELDEPLVLNSYVTPICIADKEYTNIFLKFGSGYVSGWGRVFHKGYSALVLQYLRVPLVDRATCLRSTKFRIYNNMFCAGFHEGGRDSCQGDSGGPHVTEVEGTSFLTGIISWGEECAMKGKYGIYTKVSEYVNWIKNKTKLT for me?
8.8
